Reference for the values: paper PMC10023679

# PROTOCOL TEXT: Solubility assay
# Format: physicochemical
# ASSAY SETUP: phosphate buffer (pH 7.4) containing 1.2% DMSO, 37 °C, read-out: Water solubility
Non-standard residues stand in square brackets, D forms with d. Residues, ends and D or L forms follow the SMILES beside them.
READOUT: solubility kinetic at 4 h

For CC(C)C[C@@H]1NC(=O)[C@H](Cc2ccc(O)cc2)NC(=O)[C@H]2CCCN2C(=O)[C@H](CC(C)C)NC(=O)[C@H](CC(C)C)NC(=O)[C@@H](CC(C)C)NC1=O [CP1] (cyclo(LL[dP]YL[dL])) , what is its reported solubility kinetic at 4 h?
> 100 µM

----------
# PROTOCOL TEXT: Caco-2 assay (permeability across cell monolayers)
# Assay type: in vitro ADME
# ASSAY SETUP: Caco-2; 1 μM compounds in HBSS (pH 7.4) containing 10 mM HEPES and 1% DMSO, 3 h incubation at 37 °C; read-out: Caco-2 permeability Pa
Non-standard residues stand in square brackets, D forms with d. Residues, ends and D or L forms follow the SMILES beside them. NMeL = CN[C@@H](CC(C)C)C(=O)O; dHica = CC(C)C[C@@H](O)C(=O)O
Papp values by entry
Report as a plain number; the unit ×10⁻⁶ cm/s is understood.

COMPOUND	READOUT	ENDPOINT VALUE
CC(C)C[C@@H]1NC(=O)[C@@H](CC(C)C)OC(=O)[C@H](CC(C)C)NC(=O)[C@H](Cc2ccc(O)cc2)NC(=O)[C@H]2CCCN2C(=O)[C@H](CC(C)C)NC1=O [DP3] (cyclo(LL[dP]YL[dHica]))	Papp	0.2

Please examine the following record next.
For CC(C)C[C@@H]1NC(=O)[C@H](Cc2ccc(O)cc2)NC(=O)[C@H]2CCCN2C(=O)[C@H](CC(C)C)NC(=O)[C@H](CC(C)C)N(C)C(=O)[C@@H](CC(C)C)NC1=O [MP4] (cyclo(L[dL][NMeL]L[dP]Y)) , what is its reported Papp?
0.5

----------
# PROTOCOL TEXT: Caco-2 assay (permeability across cell monolayers)
# Assay type: in vitro ADME
# ASSAY SETUP: human, Caco-2; 1 μM compounds in HBSS (pH 7.4) containing 10 mM HEPES and 1% DMSO, 3 h incubation at 37 °C; read-out: Caco-2 permeability Pa
Non-standard residues stand in square brackets, D forms with d. Residues, ends and D or L forms follow the SMILES beside them. dNMeL = CN[C@H](CC(C)C)C(=O)O
READOUT: Papp at 3 h, 1 μM (nm/s)
Report as a plain number; the unit nm/s is understood.

For CC(C)C[C@@H]1NC(=O)[C@@H](CC(C)C)N(C)C(=O)[C@H](CC(C)C)NC(=O)[C@H](Cc2ccc(O)cc2)NC(=O)[C@H]2CCCN2C(=O)[C@H](CC(C)C)NC1=O [MP3] (cyclo(LL[dP]YL[dNMeL])) , what is its reported Papp at 3 h, 1 μM?
2

----------
# PROTOCOL TEXT: in vitro
# Assay type: in vitro ADME
# ASSAY SETUP: PAMPA
Non-standard residues stand in square brackets, D forms with d. Residues, ends and D or L forms follow the SMILES beside them. NMeL = CN[C@@H](CC(C)C)C(=O)O; dNMeL = CN[C@H](CC(C)C)C(=O)O
Papp at 16 h, 3 μM values by entry
Report as a plain number; the unit ×10⁻⁶ cm/s is understood.

Reference set (3 entries):
MOLECULE	Papp at 16 h, 3 μM / ×10⁻⁶ cm/s
CC(C)C[C@@H]1C(=O)N[C@H](C(C)C)C(=O)N[C@H](C)C(=O)N2CCC[C@@H]2C(=O)N(C)[C@H](CC(C)C)C(=O)N[C@H](C(C)C)C(=O)N[C@H](C)C(=O)N2CCC[C@@H]2C(=O)N1C [D8.31, reference compound] (cyclo([dA][dP][dNMeL][dV][dA][dP][dNMeL][dV]))	0.2
CC(C)C[C@@H]1NC(=O)[C@H]2CCCN2C(=O)[C@H](CC(C)C)NC(=O)[C@@H](C(C)C)NC(=O)[C@H](CC(C)C)NC(=O)[C@H]2CCCN2C(=O)[C@H](CC(C)C)N(C)C(=O)[C@@H](C(C)C)NC1=O [D8.21-amide] (cyclo(L[dP]L[dV][NMeL][dP]L[dV]))	1.6
CC(C)C[C@@H]1NC(=O)[C@H]2CCCN2C(=O)[C@H](CC(C)C)N(C)C(=O)[C@@H](C(C)C)NC(=O)[C@H](CC(C)C)NC(=O)[C@H]2CCCN2C(=O)[C@H](CC(C)C)N(C)C(=O)[C@@H](C(C)C)NC1=O [D8.21, reference compound] (cyclo(L[dV][NMeL][dP]L[dV][NMeL][dP]))	8.2

For CC(C)C[C@@H]1NC(=O)[C@H](CC(C)C)N(C)C(=O)[C@@H](C(C)C)NC(=O)[C@H](C)NC(=O)[C@H](C)NC(=O)[C@H]2CCCN2C(=O)[C@@H](CC(C)C)NC(=O)[C@@H]2CCCN2C(=O)[C@H](CC(C)C)NC1=O (relative stereo) , what is its reported Papp at 16 h, 3 μM?
0.1
